# test system: T1, human SIRP-α v2 D1 domain (human)
# T1 construct: also called human v2
# T1 sequence (chain, as listed by the source limits assumed): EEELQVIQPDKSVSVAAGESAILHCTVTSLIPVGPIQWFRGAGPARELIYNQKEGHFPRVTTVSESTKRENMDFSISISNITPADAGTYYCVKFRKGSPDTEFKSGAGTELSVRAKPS
# assay info: SPR, Langmuir fit
koff for assorted binders
Field format: number, assumed s⁻¹, no unit text.

S73 (scFv, V domains shown, also called clone 73) VH: DVQLVESGGGVVRPGESLRLSCEASGFTFSSNAMSWARQAPGKGLEWVAGISSGSDTYYGDSVKGRLTISRDNSKNILYLQMNSLTAEDTAVYYCARETWNHLFDYWGLGTLVTVSS VL: ALTQPASVSANPGETVKITCSGGIYSSYYYAWYQQKSPGSAPVTLIYSDDKRPSNIPSRFSGSASGSTATLTITGVRAEDEAVYFCGGYDQSSYTNPFGAGTTLTVL    7.49e-05
S30 (scFv, V domains shown, also called clone 30) VH: DVQLVESGGGVVRPGESLRLSCEASGFTFSSDAMSWVRQAPGKGLEWVSGISSGSSTYYGGSVKGRFTISRDNSKNTLYLQMNSLTAEDTAVYYCARETWNHLFDYWGLGTLVTVSS VL: ALTQPASVSASPGETVEITCSGGSDSSYYYGWYQQKSPGSAPVTVIYSDNKRPSNIPSRFSGSASGSTATLTITGVRVEDEAVYYCGGYDYSTYTNPFGAGTTLTVL    0.000188
S27 (scFv, V domains shown, also called clone 27; scFv-Fc form of AB27) VH: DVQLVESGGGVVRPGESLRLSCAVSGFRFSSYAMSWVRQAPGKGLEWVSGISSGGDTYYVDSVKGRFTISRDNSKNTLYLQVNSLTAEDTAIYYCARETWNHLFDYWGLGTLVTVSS VL: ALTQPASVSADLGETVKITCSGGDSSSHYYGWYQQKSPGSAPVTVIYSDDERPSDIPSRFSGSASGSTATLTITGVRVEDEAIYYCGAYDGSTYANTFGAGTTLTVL    9.97e-05

Okay, now this binder:
Task: Given the entry S65 (scFv, V domains shown, also called clone 65) VH: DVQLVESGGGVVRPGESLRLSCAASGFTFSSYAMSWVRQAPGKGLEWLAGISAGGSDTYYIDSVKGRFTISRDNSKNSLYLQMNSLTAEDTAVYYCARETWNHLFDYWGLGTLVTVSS VL: ALTQPASVSANPGETVKITCSGGDYYSTYYGWYQQKSPGSAPVTVIHSDDKRPSDIPSRFSGSASGSAATLTITGVRVEDEAVYFCGAYDGRTYINTFGAGTTLTVL , report its measured koff.
Result: 0.000172
